test: self-splicing fitness, log relative to wild type (ln ratio); higher = more splicing; Tetrahymena group I intron in knt gene, E. coli kanamycin selection, DiMSum; sequences stand for … in CUCUCU…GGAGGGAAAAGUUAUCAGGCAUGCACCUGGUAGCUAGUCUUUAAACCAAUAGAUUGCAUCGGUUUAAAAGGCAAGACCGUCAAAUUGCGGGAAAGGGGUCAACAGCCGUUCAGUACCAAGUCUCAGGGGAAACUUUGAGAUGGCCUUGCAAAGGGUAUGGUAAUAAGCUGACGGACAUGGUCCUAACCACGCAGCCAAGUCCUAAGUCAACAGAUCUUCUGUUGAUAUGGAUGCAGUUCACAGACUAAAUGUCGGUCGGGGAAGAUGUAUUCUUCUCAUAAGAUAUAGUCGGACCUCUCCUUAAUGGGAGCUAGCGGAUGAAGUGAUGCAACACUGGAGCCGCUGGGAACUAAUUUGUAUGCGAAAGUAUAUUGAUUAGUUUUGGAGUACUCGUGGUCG; conditions: 37 °C;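 further: selection with 25 µg/mL kanamycin versus none on LB agar overnight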
The threshold is inclusive: self-splicing fitness (ln) of exactly -1 counts as YES; values below receive NO.

# residues, class.name
rows = [
    ("UGAGAGCAAUAUUACGAAAU", "NO"),
    ("UCCCAGCAAUAUUACGCAUA", "NO"),
    ("CCGCAGCAAUAUUACGCAAU", "NO"),
    ("GACCAGCAAUAUUACGAUCU", "YES"),
    ("UGCCAGCAAUAUUACGUAGC", "NO"),
    ("GGUCAGCAAUAUUACGCACA", "YES"),
    ("GUCAAGCAAUAUUACGAUGU", "YES"),
    ("AGGCAGCAAUAUUACGAAAA", "NO"),
    ("CUCAAGCAAUAUUACGAUUA", "NO"),
    ("AAUGAGCAAUAUUACGCUGC", "NO"),
    ("AUAAAGCAAUAUUACGUGCC", "YES"),
    ("CGUAAGCAAUAUUACGACGA", "NO"),
    ("GGUAAGCAAUAUUACGCGAC", "NO"),
    ("ACAAAGCAAUAUUACGAGGG", "NO"),
    ("AAAAAGCAAUAUUACGUAGG", "NO"),
    ("CACUAGCAAUAUUACGGGGA", "NO"),
    ("CGUAAGCAAUAUUACGGGGC", "NO"),
    ("AAGCAGCAAUAUUACGGUUG", "NO"),
    ("CGCGAGCAAUAUUACGGGAG", "NO"),
    ("GCAAAGCAAUAUUACGCAUA", "NO"),
    ("GUACAGCAAUAUUACGGGGG", "NO"),
    ("ACACAGCAAUAUUACGGACG", "YES"),
    ("CCACAGCAAUAUUACGGACA", "NO"),
    ("AAUCAGCAAUAUUACGAAUU", "YES"),
    ("UAUCAGCAAUAUUACGAGGU", "NO"),
    ("AGGCAGCAAUAUUACGCGCU", "NO"),
    ("GAAUAGCAAUAUUACGAUCA", "YES"),
    ("UACCAGCAAUAUUACGACGC", "NO"),
    ("AUCUAGCAAUAUUACGGAAC", "NO"),
    ("ACGCAGCAAUAUUACGUCGA", "NO"),
    ("AUCAAGCAAUAUUACGCGAC", "NO"),
]
